- TARGET_ENTITY: Cannabinoid receptor 1 (Rattus norvegicus) (UniProt P20272)
- Sequence (P20272 whole entry): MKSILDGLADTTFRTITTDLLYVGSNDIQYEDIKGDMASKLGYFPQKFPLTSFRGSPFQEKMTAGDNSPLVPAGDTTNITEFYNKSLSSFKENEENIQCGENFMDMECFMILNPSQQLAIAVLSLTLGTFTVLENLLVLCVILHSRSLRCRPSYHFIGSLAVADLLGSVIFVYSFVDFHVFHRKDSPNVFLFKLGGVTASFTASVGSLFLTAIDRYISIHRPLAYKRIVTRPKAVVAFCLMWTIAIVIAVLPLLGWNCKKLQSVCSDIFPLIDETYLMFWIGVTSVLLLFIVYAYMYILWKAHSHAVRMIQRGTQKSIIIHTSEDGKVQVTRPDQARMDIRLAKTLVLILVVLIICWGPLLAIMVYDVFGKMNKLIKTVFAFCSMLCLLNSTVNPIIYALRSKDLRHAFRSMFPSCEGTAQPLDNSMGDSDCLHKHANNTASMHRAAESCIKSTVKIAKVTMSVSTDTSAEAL
- EXPERIMENTAL_PROTOCOL: Intrinsic activity at CB1 receptor in rat brain cortical membranes assessed as stimulation of [35S]GTPgammaS binding at 10 uM by liquid scintillation counting method relative to CP55,940
- Format: functional, cell membranes
# label = Condition met if Intrinsic activity < -20% else Condition not met

Prompt: Input O=C1N=C2SCCCCN2C1(c1ccccc1)c1ccccc1 ; condition: Intrinsic activity strictly below -20%. Does it hold?
Response: Condition not met

Prompt: Input O=C1/C(=C/c2cccc(OCc3ccccc3)c2)N=C2SCCCCN12 ; condition: Intrinsic activity strictly below -20%. Does it hold?
Response: Condition met

Prompt: Input O=C1/C(=C/c2cccc(OCc3ccc(F)cc3)c2)N=C2SCCCCN12 ; condition: Intrinsic activity strictly below -20%. Does it hold?
Response: Condition not met

Prompt: Input O=C1/C(=C/c2cccc(OCc3ccc(Cl)cc3Cl)c2)N=C2SCCCN12 ; condition: Intrinsic activity strictly below -20%. Does it hold?
Response: Condition not met

Prompt: Input O=C1/C(=C/c2cccc(OCc3ccc(Cl)cc3)c2)N=C2SCCCN12 ; condition: Intrinsic activity strictly below -20%. Does it hold?
Response: Condition not met

Prompt: Input O=C1N2CCCCSC2=NC1(c1ccccc1)c1ccccc1 ; condition: Intrinsic activity strictly below -20%. Does it hold?
Response: Condition not met

Prompt: Input O=C1/C(=C/c2cccc(Oc3ccccc3)c2)N=C2SCCCCN12 ; condition: Intrinsic activity strictly below -20%. Does it hold?
Response: Condition met

Prompt: Input O=C1/C(=C/c2cccc(OCc3cccc(Cl)c3)c2)N=C2SCCCCN12 ; condition: Intrinsic activity strictly below -20%. Does it hold?
Response: Condition not met

Prompt: Input O=C1/C(=C/c2cccc(Oc3ccccc3)c2)N=C2SCCCN12 ; condition: Intrinsic activity strictly below -20%. Does it hold?
Response: Condition not met

Prompt: Input O=C1N2CCCSC2=NC1(c1ccccc1)c1ccccc1 ; condition: Intrinsic activity strictly below -20%. Does it hold?
Response: Condition met

Prompt: Input O=C1/C(=C/c2cccc(OCc3ccc(Cl)cc3)c2)N=C2SCCCCN12 ; condition: Intrinsic activity strictly below -20%. Does it hold?
Response: Condition not met
